test system: Staphylococcus aureus; experiment: Antistaphylococcal activity against aminoglycosides/tetracycline-resistant Staphylococcus aureus NRS-1 after 18 hrs by two-fold serial dilution method; assay type: functional; details: NRS-1, 18 h
Measured attribute: MIC

These solved cases illustrate the format of a correct answer.
>  <Mol smiles>
CN[C@H](CC(C)C)C(=O)N[C@H]1C(=O)N[C@@H](CC(N)=O)C(=O)N[C@H]2C(=O)N[C@H]3C(=O)N[C@H](C(=O)N[C@H](C(=O)O)c4cc(O)cc(O)c4-c4cc3ccc4O)[C@H](O)c3ccc(c(Cl)c3)Oc3cc2cc(c3O[C@@H]2O[C@H](CO)[C@@H](O)[C@H](O)[C@H]2O[C@H]2C[C@](C)(N)[C@H](O)[C@H](C)O2)Oc2ccc(cc2Cl)[C@H]1O

>  <MIC>
1.56 to 3.13 µg/mL

$$$$
>  <Mol smiles>
CC(C)c1cc2c(cc1Br)[C@@]1(C)CCC[C@@](C)(C(=O)O)[C@@H]1C/C2=N\OCCNS(=O)(=O)c1ccc(F)cc1

>  <MIC>
1.56 to 3.13 µg/mL

$$$$
>  <Mol smiles>
CC(C)c1cc2c(cc1Br)[C@@]1(C)CCC[C@@](C)(C(=O)O)[C@@H]1C/C2=N\OCCNS(=O)(=O)c1ccccc1Br

>  <MIC>
1.56 to 3.13 µg/mL

$$$$
>  <Mol smiles>
Cc1ccc(S(=O)(=O)NCCO/N=C2\C[C@H]3[C@](C)(C(=O)O)CCC[C@]3(C)c3cc(Br)c(C(C)C)cc32)cc1

>  <MIC>
3.13 to 6.25 µg/mL

$$$$

Data request: Give MIC for the following compound: `CC(C)c1cc2c(cc1Br)[C@@]1(C)CCC[C@@](C)(C(=O)O)[C@@H]1C/C2=N\OCCNS(=O)(=O)c1ccc(Br)cc1`
Data returned: 0.78 to 1.56 µg/mL

###

system: Staphylococcus aureus; assay: Antistaphylococcal activity against aminoglycosides/tetracycline-resistant Staphylococcus aureus NRS-1 after 18 hrs by two-fold serial dilution method; assay type: functional; conditions: NRS-1, 18 h
Measured attribute: MIC

These solved cases illustrate the format of a correct answer.
>  <Molecule>
CC(C)c1cc2c(cc1Br)[C@@]1(C)CCC[C@@](C)(C(=O)O)[C@@H]1C/C2=N\OCCNS(=O)(=O)c1cccc2cccnc12

>  <Measured attribute>
MIC

>  <Reading>
1.56 to 3.13 µg/mL

$$$$
>  <Molecule>
CC(C)c1cc2c(cc1Br)[C@@]1(C)CCC[C@@](C)(C(=O)O)[C@@H]1C/C2=N\OCCNS(=O)(=O)c1ccc(Cl)c(C(F)(F)F)c1

>  <Measured attribute>
MIC

>  <Reading>
12.5 to 25 µg/mL

$$$$
>  <Molecule>
CC(C)c1cc2c(cc1Br)[C@@]1(C)CCC[C@@](C)(C(=O)O)[C@@H]1C/C2=N\OCCNS(=O)(=O)c1ccc(Cl)s1

>  <Measured attribute>
MIC

>  <Reading>
1.56 to 3.13 µg/mL

$$$$
>  <Molecule>
CC(C)c1cc2c(cc1Br)[C@@]1(C)CCC[C@@](C)(C(=O)O)[C@@H]1C/C2=N\OCCNS(=O)(=O)c1cc(C(F)(F)F)cc(C(F)(F)F)c1

>  <Measured attribute>
MIC

>  <Reading>
> 50 µg/mL

$$$$
>  <Molecule>
CC(C)c1cc2c(cc1Br)[C@@]1(C)CCC[C@@](C)(C(=O)O)[C@@H]1C/C2=N\OCCNS(=O)(=O)c1ccccc1F

>  <Measured attribute>
MIC

>  <Reading>
1.56 to 3.13 µg/mL

$$$$
>  <Molecule>
CC(C)c1cc2c(cc1Br)[C@@]1(C)CCC[C@@](C)(C(=O)O)[C@@H]1C/C2=N\OCCNS(=O)(=O)c1ccc2ccccc2c1

>  <Measured attribute>
MIC

>  <Reading>
3.13 to 6.25 µg/mL

$$$$
>  <Molecule>
CC(C)c1ccc2c(c1)CC[C@H]1[C@](C)(C(=O)O)CCC[C@]21C [DEHYDROABIETIC ACID]

>  <Measured attribute>
MIC

>  <Reading>
12.5 to 25 µg/mL

$$$$
>  <Molecule>
CC(C)c1cc2c(cc1Br)[C@@]1(C)CCC[C@@](C)(C(=O)O)[C@@H]1C/C2=N\OCCNS(=O)(=O)c1cccc(Br)c1

>  <Measured attribute>
MIC

>  <Reading>
1.56 to 3.13 µg/mL

$$$$

Data request: Give MIC for the following molecule: `CC(C)c1cc2c(cc1Br)[C@@]1(C)CCC[C@@](C)(C(=O)O)[C@@H]1C/C2=N\OCCNS(=O)(=O)c1ccc(Cl)cc1`
Data returned: 1.56 to 3.13 µg/mL

Data request: Give MIC for the following molecule: `CC(C)c1cc2c(cc1Br)[C@@]1(C)CCC[C@@](C)(C(=O)O)[C@@H]1C/C2=N\OCCNS(=O)(=O)c1cccc(C(F)(F)F)c1`
Data returned: 1.56 to 3.13 µg/mL

Data request: Give MIC for the following molecule: `CC(C)c1cc2c(cc1Br)[C@@]1(C)CCC[C@@](C)(C(=O)O)[C@@H]1C/C2=N\OCCNS(=O)(=O)c1ccc(Br)s1`
Data returned: 1.56 to 3.13 µg/mL

Data request: Give MIC for the following molecule: `Cc1noc(C)c1S(=O)(=O)NCCO/N=C1\C[C@H]2[C@](C)(C(=O)O)CCC[C@]2(C)c2cc(Br)c(C(C)C)cc21`
Data returned: 1.56 to 3.13 µg/mL

Data request: Give MIC for the following molecule: `CN(C)[C@@H]1C(O)=C(C(N)=O)C(=O)[C@@]2(O)C(O)=C3C(=O)c4c(O)cccc4[C@@](C)(O)[C@H]3C[C@@H]12`
Data returned: > 25 µg/mL

###

test system: Staphylococcus aureus; assay: Antistaphylococcal activity against oxacillin/tetracycline-resistant Staphylococcus aureus NRS-100 after 18 hrs by two-fold serial dilution method; format: functional; conditions: NRS-100, 18 h
This listing pairs molecules with measured MIC.

These solved cases illustrate the format of a correct answer.
>  <Molecule>
CC(C)c1cc2c(cc1Br)[C@@]1(C)CCC[C@@](C)(C(=O)O)[C@@H]1C/C2=N\OCCNS(=O)(=O)c1ccc(Cl)c(C(F)(F)F)c1

>  <MIC>
> 50 µg/mL

$$$$
>  <Molecule>
CC(C)c1cc2c(cc1Br)[C@@]1(C)CCC[C@@](C)(C(=O)O)[C@@H]1C/C2=N\OCCNS(=O)(=O)c1ccc(Br)cc1

>  <MIC>
0.78 to 1.56 µg/mL

$$$$
>  <Molecule>
Cc1ccc(S(=O)(=O)NCCO/N=C2\C[C@H]3[C@](C)(C(=O)O)CCC[C@]3(C)c3cc(Br)c(C(C)C)cc32)cc1

>  <MIC>
3.13 to 6.25 µg/mL

$$$$

Data request: Give MIC for the following molecule: `CC(C)c1cc2c(cc1Br)[C@@]1(C)CCC[C@@](C)(C(=O)O)[C@@H]1C/C2=N\OCCNS(=O)(=O)c1ccc2ccccc2c1`
Data returned: 3.13 to 6.25 µg/mL

Data request: Give MIC for the following molecule: `CC(C)c1cc2c(cc1Br)[C@@]1(C)CCC[C@@](C)(C(=O)O)[C@@H]1C/C2=N\OCCNS(=O)(=O)c1ccc(Cl)cc1Cl`
Data returned: 0.78 to 1.56 µg/mL

Data request: Give MIC for the following molecule: `CC(C)c1cc2c(cc1Br)[C@@]1(C)CCC[C@@](C)(C(=O)O)[C@@H]1C/C2=N\OCCNS(=O)(=O)c1ccc(Br)s1`
Data returned: 1.56 to 3.13 µg/mL

Data request: Give MIC for the following molecule: `Cc1ccccc1S(=O)(=O)NCCO/N=C1\C[C@H]2[C@](C)(C(=O)O)CCC[C@]2(C)c2cc(Br)c(C(C)C)cc21`
Data returned: 3.13 to 6.25 µg/mL

Data request: Give MIC for the following molecule: `Cc1noc(C)c1S(=O)(=O)NCCO/N=C1\C[C@H]2[C@](C)(C(=O)O)CCC[C@]2(C)c2cc(Br)c(C(C)C)cc21`
Data returned: 3.13 to 6.25 µg/mL

Data request: Give MIC for the following molecule: `CC(C)c1cc2c(cc1Br)[C@@]1(C)CCC[C@@](C)(C(=O)O)[C@@H]1C/C2=N\OCCNS(=O)(=O)c1ccc(Cl)s1`
Data returned: 1.56 to 3.13 µg/mL

Data request: Give MIC for the following molecule: CN(C)[C@@H]1C(O)=C(C(N)=O)C(=O)[C@@]2(O)C(O)=C3C(=O)c4c(O)cccc4[C@@](C)(O)[C@H]3C[C@@H]12 [TETRACYCLINE]
Data returned: < 0.2 µg/mL

Data request: Give MIC for the following molecule: `CC(C)c1cc2c(cc1Br)[C@@]1(C)CCC[C@@](C)(C(=O)O)[C@@H]1C/C2=N\OCCNS(=O)(=O)c1ccccc1Cl`
Data returned: 1.56 to 3.13 µg/mL

Data request: Give MIC for the following molecule: `CC(C)c1cc2c(cc1Br)[C@@]1(C)CCC[C@@](C)(C(=O)O)[C@@H]1C/C2=N\OCCNS(=O)(=O)c1cccc(Cl)c1`
Data returned: 1.56 to 3.13 µg/mL

Data request: Give MIC for the following molecule: `CC(C)c1cc2c(cc1Br)[C@@]1(C)CCC[C@@](C)(C(=O)O)[C@@H]1C/C2=N\OCCNS(=O)(=O)c1ccc(F)cc1`
Data returned: 1.56 to 3.13 µg/mL

Data request: Give MIC for the following molecule: `CC(C)c1cc2c(cc1Br)[C@@]1(C)CCC[C@@](C)(C(=O)O)[C@@H]1C/C2=N\OCCNS(=O)(=O)c1ccc(Br)c(C(F)(F)F)c1`
Data returned: 0.78 to 1.56 µg/mL

The reported numbers originate from ChEMBL document CHEMBL4219219.
